system.tested: T1, bovine thymus-derived HMGB1 (bovine, UniProt P10103 2-215)
T1 construct: Bought protein from tissue
T1 sequence (looked up): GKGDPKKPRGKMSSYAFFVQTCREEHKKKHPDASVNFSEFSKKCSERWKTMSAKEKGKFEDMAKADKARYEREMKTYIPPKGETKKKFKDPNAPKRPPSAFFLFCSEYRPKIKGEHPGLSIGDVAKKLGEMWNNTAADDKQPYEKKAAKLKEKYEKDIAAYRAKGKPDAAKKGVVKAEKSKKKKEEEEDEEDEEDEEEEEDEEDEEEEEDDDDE
assay.method.text: ELISA on HMGB1-immobilized immunoplate, antibodies adjusted to an equal concentration; OD as % of #10-22 chimera (source of the HMGB1 not named for this figure)
measurement.name: binding result

binder="D77G (antibody, human IgG1, lambda, V domains shown, co-expressed with the #10-22 chimeric antibody H chain in CHO-K1 cells; also called #10-22 chimeric antibody (L chain) site substitution variant D77G) VH: AVQLVESGGGLVQPKESLKISCAASGFTFSNAAMYWVRQAPGKGLEWVARIRTKPNNYATYYADSVKGRFTISRDDSKSMVYLQMDNLKTEDTAMYYCTAPRRTEGIVSSGVDYWGQGVMVTVSS VL: YELIQPPSASVTLGNTVSITCSGDELPKRYAYWYQQKPDKSIVRVIYKDSERPSGISDRFSGSSSGTTATLTIRGTQAEDEADYYCHSTYSDDKLPVFGGGTKLTVLG" result=binds
binder="D41G (antibody, human IgG1, lambda, V domains shown, co-expressed with the #10-22 chimeric antibody H chain in CHO-K1 cells; also called #10-22 chimeric antibody (L chain) site substitution variant D41G) VH: AVQLVESGGGLVQPKESLKISCAASGFTFSNAAMYWVRQAPGKGLEWVARIRTKPNNYATYYADSVKGRFTISRDDSKSMVYLQMDNLKTEDTAMYYCTAPRRTEGIVSSGVDYWGQGVMVTVSS VL: YELIQPPSASVTLGNTVSITCSGDELPKRYAYWYQQKPGKSIVRVIYKDSERPSGISDRFSGSSSGTTATLTIRDTQAEDEADYYCHSTYSDDKLPVFGGGTKLTVLG" result=binds
